Biological target: T1, human CD3 on CD3+ Jurkat cells (human, UniProt P07766 23-207)
T1 construct: whole, on cells; Native CD3 complex on cells; the other CD3 chains are not specified for this assay; also called Human CD3+ Jurkat
T1 sequence (P07766 23-207): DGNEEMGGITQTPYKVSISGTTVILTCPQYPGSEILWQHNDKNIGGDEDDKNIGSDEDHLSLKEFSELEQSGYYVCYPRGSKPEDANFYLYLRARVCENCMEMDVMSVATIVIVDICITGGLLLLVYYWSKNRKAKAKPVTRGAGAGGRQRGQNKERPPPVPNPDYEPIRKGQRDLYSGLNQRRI
Assay: flow cytometry, 100 nM IgG on CD3+ Jurkat cells, pH 7.4
Below, each entry is listed with its recorded MFI pH 7.4.
measured-quantity: MFI pH 7.4

SAD10318_P04_D10 (ADI-48613) (antibody, V domains shown, IgG; also called Ab211) VH: QVQLVQSGAEVKKPGASVKVSCKASGFNIKDYYMHWVRQAPGQRLEWMGWIDLENANTIYDAKFQGRVTITRDTSASTAYMELSSLRSEDTAVYYCARDAYGHYHYDVWGQGTLVTVSS VL: DIVMTQSPDSLAVSLGERATINCKSSQSLLHARTGKNHLAWYQQKPGQPPKLLIYWASTRESGVPDRFSGSGSGTDFTLTISSLQAEDVAVYYCKQSYSRRTFGGGTKVEIK
66 MFI
SAD10320_P01_B01 (ADI-48643) (antibody, V domains shown, IgG; also called Ab46) VH: QVQLVQSGAEVKKPGASVKVSCKASGFNIKDYYMHWVRQAPGQRLEWMGWIDLENANTIYDAKFQGRVTITRDTSASTAYMELSSLRSEDTAVYYCARDAYGHIFYDVWGQGTLVTVSS VL: DIVMTQSPDSLAVSLGERATINCKSSQSLLNARTGKNYLAWYQQKPGQPPKLLIYWASTRESGVPDRFSGSGSGTDFTLTISSLQAEDVAVYYCKQSYVHRTFGGGTKVEIK
265 MFI
